Recorded values, source ChEMBL document CHEMBL1135551.

# system: Transient receptor potential cation channel subfamily V member 1 (Homo sapiens, UniProt Q8NER1)
# Sequence (Q8NER1 whole entry): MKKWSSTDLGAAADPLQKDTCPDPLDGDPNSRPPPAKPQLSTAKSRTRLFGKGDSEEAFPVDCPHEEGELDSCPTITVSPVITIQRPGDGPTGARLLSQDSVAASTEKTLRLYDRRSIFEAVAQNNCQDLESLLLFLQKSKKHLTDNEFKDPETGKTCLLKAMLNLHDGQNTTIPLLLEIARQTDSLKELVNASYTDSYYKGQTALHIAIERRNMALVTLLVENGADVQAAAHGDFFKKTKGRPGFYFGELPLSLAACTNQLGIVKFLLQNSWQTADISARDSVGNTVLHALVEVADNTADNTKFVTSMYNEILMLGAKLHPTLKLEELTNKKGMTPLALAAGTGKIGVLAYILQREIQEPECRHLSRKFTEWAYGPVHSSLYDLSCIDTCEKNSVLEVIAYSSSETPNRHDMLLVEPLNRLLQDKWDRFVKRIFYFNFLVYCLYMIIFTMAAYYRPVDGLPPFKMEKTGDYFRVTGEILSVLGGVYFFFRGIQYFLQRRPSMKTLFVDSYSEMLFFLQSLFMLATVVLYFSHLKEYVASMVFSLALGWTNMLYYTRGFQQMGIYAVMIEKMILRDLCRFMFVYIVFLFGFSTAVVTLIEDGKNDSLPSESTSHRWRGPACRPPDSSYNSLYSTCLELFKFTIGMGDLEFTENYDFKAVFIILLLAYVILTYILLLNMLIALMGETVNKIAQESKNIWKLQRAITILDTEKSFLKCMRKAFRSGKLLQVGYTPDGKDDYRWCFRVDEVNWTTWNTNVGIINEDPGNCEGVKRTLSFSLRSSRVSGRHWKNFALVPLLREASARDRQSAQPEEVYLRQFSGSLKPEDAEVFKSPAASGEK
# testMethodNotes: Percent absolute effect obtained with ionomycin, measured by the entry of [Ca2+] into human embryonic kidney HEK293 cells overexpressing hVR1
# Type: functional, cell-based
readoutLabel: Response (%)
Reply numerically in %, unit not repeated.

Use these answered entries as a reference point.
CCCCCC/C=C/C#CCCCCCCCC(=O)NCc1ccc(O)c(OC)c1 ... 70.7
COc1cc(CNC(=O)C2CC2(C)CCCC(C)CCCC(C)CCCC(C)C)ccc1O (stereo unspecified) ... 91.2
CCCCCC[C@@H](O)CCCCCCCCCCC(=O)NCc1ccc(O)c(OC)c1 ... 69.7
COc1cc(CNC(=O)C2C(C(=O)NCc3ccc(O)c(OC)c3)[C@H]3C=C[C@@H]2C3)ccc1O (stereo in doubt; cis) ... 16.4
COc1cc(CNC(=O)/C=C(\C)CCC=C(C)C)ccc1O ... 70.9

API: the following record is the query input.
Asked: # get_value(readout='Response', item= "C=C(C(=O)NCc1ccc(O)c(OC)c1)[C@H]1CC[C@]2(C)CCC[C@](C)(O)[C@H]2C1" )
Given back: 78.9

====

Items are presented alongside their recorded Response.
# system: Transient receptor potential cation channel subfamily V member 1 (Homo sapiens, UniProt Q8NER1)
# testMethodNotes: Percent absolute effect obtained with ionomycin, measured by the entry of [Ca2+] into human embryonic kidney HEK293 cells overexpressing hVR1
# Format: functional, cell-based
Value expressed in %; do not type the unit.

Examples from the recorded data:
C=CCCCCCCCCC(=O)NCc1ccc(O)c(OC)c1 ... 85
CCCCCCCC[C@@H]1C[C@@H]1CCCCCCCC(=O)NCc1ccc(O)c(OC)c1 ... 86.7
CCCCCCCCC#CCCCCCCCC(=O)NCc1ccc(O)c(OC)c1 ... 73.7
COc1cc(CNC(=O)/C=C(\C)CCC[C@H](C)CCC[C@H](C)CCCC(C)C)ccc1O ... 85
CCCCCC[C@@H](O)CC1CC1CCCCCCCC(=O)NCc1ccc(O)c(OC)c1 (stereo not given in full) ... 98
COc1cc(CNC(=O)/C=C(\C)CC/C=C(\C)CCC=C(C)C)ccc1O ... 79.9

Asked: Which value of Response has been reported for "CCCCCCCCCCCCCCCCCC(=O)NCc1ccc(O)c(OC)c1" in the records?
Given back: 32.4

Asked: Follow-up item: "CCCCCCCC/C=C\CCCCCCCC(=O)NCc1ccc(O)c(OC)c1"
Given back: 67.2

Asked: Let us now turn to COc1cc(CNC(=O)C2C(C(=O)NCc3ccc(O)c(OC)c3)[C@H]3C=C[C@@H]2C3)ccc1O (stereo in doubt; trans)
Given back: 37.2

Asked: Please answer likewise for "CCCCCCCC[C@H]1C[C@H]1CCCCCCCCCCCC(=O)NCc1ccc(O)c(OC)c1"
Given back: 91

====

# system: UniProt:Q8NER1
# testMethodNotes: Concentration necessary to induce a relative half-maximal response measured by the entry of [Ca2+] into human embryonic kidney HEK293 cells overexpressing the human VR1
readoutLabel: EC50 (nM)
Supply the numeric figure in nM, leaving out any unit text.

Asked: Checklist item: EC50 tested on UniProt:Q8NER1, entry COc1cc(CNC(=O)C2CC2(C)CCCC(C)CCCC(C)CCCC(C)C)ccc1O (stereo unspecified) , value?
Given back: 2.51

====

# system: Transient receptor potential cation channel subfamily V member 1 (Homo sapiens)
# testMethodNotes: Percent absolute effect obtained with ionomycin, measured by the entry of [Ca2+] into human embryonic kidney HEK293 cells overexpressing hVR1
# Assay type: functional, cell-based
Parameter: Response. Scope: all listed entries.
Your answer is read as %, so omit the unit and give the number.

Past entries and their recorded results:
COc1cc(CNC(=O)CCCCCCCCCCCCCCCCCCC(=O)NCc2ccc(O)c(OC)c2)ccc1O ... 83.4
C/C=C/C=C/C(=O)NCc1ccc(O)c(OC)c1 ... 34.6
COc1cc(CNC(=O)CC[C@H](C)[C@@H]2CC[C@H]3[C@@H]4[C@@H](O)C[C@H]5C[C@@H](O)CC[C@@]5(C)[C@H]4C[C@@H](O)[C@]32C)ccc1O ... 5.8
C=C(C)[C@H]1CC=C(C(=O)NCc2ccc(O)c(OC)c2)CC1 ... 74.5
CCCCCC[C@@H](O)C/C=C\CCCCCCCC(=O)NCc1ccc(O)c(OC)c1 ... 85

Asked: Which Response is listed for "COc1cc(CNC(=O)[C@@]2(C)CCC[C@@]3(C)[C@H]2CC=C2C=C(C(C)C)CC[C@@H]23)ccc1O" ?
Given back: 37.5

Asked: What would you report for "COc1cc(CNC(=O)[C@]23CC[C@@H](C)[C@H](C)[C@H]2C2=CC[C@@H]4[C@@]5(C)CC[C@H](O)C(C)(C)[C@@H]5CC[C@@]4(C)[C@]2(C)CC3)ccc1O" ?
Given back: 14.3

Asked: Also need "CCCCCC[C@H](C/C=C\CCCCCCCC(=O)NCc1ccc(O)c(OC)c1)OC(C)=O" , thanks.
Given back: 93.5

====

# system: Transient receptor potential cation channel subfamily V member 1 (Homo sapiens, UniProt Q8NER1)
# testMethodNotes: Percent absolute effect obtained with ionomycin, measured by the entry of [Ca2+] into human embryonic kidney HEK293 cells overexpressing hVR1
# Type: functional, cell-based
Examples of compounds with documented Response follow.

A selection of reference data follows.
C=C(C)[C@@H]1CC[C@]2(C(=O)NCc3ccc(O)c(OC)c3)CC[C@]3(C)[C@H](CC[C@@H]4[C@@]5(C)CC[C@H](O)C(C)(C)[C@@H]5CC[C@]43C)[C@@H]12 ... 88.6%
CCCCCCC(=O)CCCCCCCCCCC(=O)NCc1ccc(O)c(OC)c1 ... 67%
COc1cc(CNC(=O)/C=C(C)/C=C/C=C(C)/C=C/C2=C(C)CCCC2(C)C)ccc1O ... 92.6%

Asked: // query Response value for entry "COc1cc(CNC(=O)[C@H]2[C@@H](C=C(C)C)C2(C)C)ccc1O"
Given back: 85%

Asked: Request: "COc1cc(CNC(=O)CCCCCCCC/C=C/CCCCCCCCC(=O)NCc2ccc(O)c(OC)c2)ccc1O"
Given back: 85.7%

Asked: What do we get for "COc1cc(CNC(=O)CCCC/C=C/C(C)C)ccc1O" ?
Given back: 65.4%

Asked: Could you do the same for "CCCCCCCC/C=C\CCCCCCCCCCC(=O)NCc1ccc(O)c(OC)c1" , please?
Given back: 91.4%

Asked: Input "COc1cc(CNC(=O)CCCCCCCCC2CC2)ccc1O"
Given back: 96.2%

Asked: Next record, please: "CCCCC/C=C\C/C=C\C/C=C\C/C=C\CCCC(=O)NCc1ccc(O)c(OC)c1"
Given back: 74.8%

====

# system: Transient receptor potential cation channel subfamily V member 1 (Homo sapiens)
# testMethodNotes: Concentration necessary to induce a relative half-maximal response measured by the entry of [Ca2+] into human embryonic kidney HEK293 cells overexpressing the human VR1
Assign labels as follows, please: 1 for EC50 below 2 nM; 0 for EC50 equal to or exceeding 2 nM.

Worked examples follow.
CCCCCCCC[C@H]1C[C@H]1CCCCCCCCCCCC(=O)NCc1ccc(O)c(OC)c1 ... 0
CCCCCCC(=O)CCCCCCCCCCC(=O)NCc1ccc(O)c(OC)c1 ... 0
CCCCCCCC/C=C\CCCCCCCC(=O)NCc1ccc(O)c(OC)c1 ... 1

Asked: Regarding "COc1cc(CNC(=O)/C=C(\C)CCC=C(C)C)ccc1O" , kindly confirm whether its EC50 is beneath 2 nM.
Given back: 0

Asked: Another compound to look at: CCCCCC[C@@H](O)CC1CC1CCCCCCCC(=O)NCc1ccc(O)c(OC)c1 (stereo partly drawn)
Given back: 0

Asked: Record: "CCCCCCCC[C@@H]1C[C@@H]1CCCCCCCC(=O)NCc1ccc(O)c(OC)c1"
Given back: 1

Asked: Continue with "COc1cc(CNC(=O)CCCCCCCCCCCCCCCCCCC(=O)NCc2ccc(O)c(OC)c2)ccc1O"
Given back: 0

Asked: Queued: "COc1cc(CNC(=O)CCCCCCCC/C=C/CCCCCCCCC(=O)NCc2ccc(O)c(OC)c2)ccc1O"
Given back: 1

Asked: Now the same for "CCCCCC[C@@H](O)C/C=C\CCCCCCCC(=O)NCc1ccc(O)c(OC)c1"
Given back: 0

Asked: And for "CCCCC/C=C\C/C=C\C/C=C\C/C=C\CCCC(=O)NCc1ccc(O)c(OC)c1" ?
Given back: 1

Asked: And "COc1cc(CNC(=O)[C@H]2[C@@H](C=C(C)C)C2(C)C)ccc1O" ?
Given back: 0

Asked: Continue with "CCCCCC/C=C/C#CCCCCCCCC(=O)NCc1ccc(O)c(OC)c1"
Given back: 1

Asked: Can you handle "COc1cc(CNC(=O)/C=C(\C)CC/C=C(\C)CCC=C(C)C)ccc1O" next?
Given back: 1
